measuredQuantity: melting point

Lookup: Please look at this compound and report its melting point: O=C(CCc1oc(-n2cnc3ccccc32)nc1-c1ccc(Cl)cc1)NCc1ccc(C(F)(F)F)cc1
Found: 194 to 195 °C

###

measuredQuantity: melting point

> print(dat)
                                 smilescode        reading
1  COc1ccc(OC)c(CNC(=O)CCc2oc(-n3cnc4ccccc43)nc2-c2ccc(Cl)cc2)c1  193 to 194 °C
2  O=C(CCc1oc(-n2cnc3ccccc32)nc1-c1ccc(Cl)cc1)NCc1cccc(Br)c1  181 to 183 °C
3  O=C(CCc1oc(-n2cnc3ccccc32)nc1-c1ccc(Cl)cc1)NCc1ccc(F)c(Br)c1  206 to 207 °C
4  CCOP(=O)(Cc1ccc(NC(=O)CCc2oc(-n3cnc(C)c3C)nc2-c2ccc(Cl)cc2)cc1)OCC  179 to 180 °C

Now for another entry.
Lookup: Please look at this compound and report its melting point: O=C(CCc1oc(-n2cnc3ccccc32)nc1-c1ccc(Cl)cc1)NCc1ccc(-c2ccccc2)cc1
Found: 214 to 216 °C

###

measuredQuantity: melting point

Lookup: Please look at this molecule and report its melting point: CCOP(=O)(Cc1ccccc1NC(=O)CCCc1oc(-n2cnc3ccccc32)nc1-c1ccc(Cl)cc1)OCC
Found: 133 to 136 °C

Lookup: Please look at this molecule and report its melting point: CCCc1nc(-c2ccc(Cl)cc2)c(CCC(N)=O)o1
Found: 150 to 151 °C

Lookup: Please look at this molecule and report its melting point: CCOP(=O)(Cc1ccc(NC(=O)CCc2oc(C3CCCCC3)nc2-c2ccc(Cl)cc2)cc1)OCC
Found: 133 to 134 °C

Lookup: Please look at this molecule and report its melting point: O=C(CCc1oc(-n2cnc3ccccc32)nc1-c1ccc(Cl)cc1)NCc1cccc(-c2ccccc2)c1
Found: 201 to 202 °C

Lookup: Please look at this molecule and report its melting point: O=C(CCc1oc(-n2cnc3ccccc32)nc1-c1ccc(Cl)cc1)NCc1ccccc1F
Found: 202 to 203 °C

###

Catalogue of melting point readings, one per entry.

> print(dat)
                                   molecule  measuredquantity        reading
1  CC(C)(C)c1ccc(NC(=O)CCc2oc(-n3cnc4ccccc43)nc2-c2ccc(Cl)cc2)cc1     melting point  219 to 220 °C
2   NC(=O)CCc1oc(-c2ccccc2)nc1-c1ccc(Cl)cc1     melting point  207 to 208 °C
3  COC(=O)c1ccc(NC(=O)CCc2oc(-c3ccccc3)nc2-c2ccc(Cl)cc2)cc1     melting point  198 to 200 °C
4  O=C(CCc1oc(-n2cnc3ccccc32)nc1-c1ccc(Cl)cc1)NCc1ccc(F)cc1F     melting point  190 to 191 °C
5  Cc1ccc(CNC(=O)CCc2oc(-n3cnc4ccccc43)nc2-c2ccc(Cl)cc2)c(C)c1     melting point  218 to 219 °C
6  COC(=O)c1ccc(NC(=O)CCCc2oc(-c3ccccc3)nc2-c2ccc(Cl)cc2)cc1     melting point  170 to 171 °C

Lookup: Please look at this molecule and report its melting point: CCOP(=O)(OCC)C(O)c1ccc(NC(=O)CCc2oc(-n3cnc4ccccc43)nc2-c2ccc(Cl)cc2)cc1 (centres unmarked)
Found: 171 to 172 °C

Lookup: Please look at this molecule and report its melting point: Cc1ccc(CNC(=O)CCCc2oc(-n3cnc4ccccc43)nc2-c2ccc(Cl)cc2)cc1
Found: 190 to 191 °C
